target: CyclinB1/CDK1 (Homo sapiens, UniProt P14635); construct: purchased Eurofins, discovery 14-450; assay: Fluorescence Polarization (FP) competitive binding assay, Cyclin B1/Cdk1; settings: 10 nM Cyclin B1/Cdk1, 2 nM FAM probe; average of 2-3 independent experiments; read-out: Cyclin B FP IC50;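 further: fluorescence polarization read after equilibration at room temperature, with IC50 taken from serially diluted dose-response curves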
*1 amine or outer side, *2 acyl side, *3 side chain or, on linkers, in order; H or OH if unused. Where a SMILES comes first, the peptide text is derived from it. Bridges are numbered along the chain shown (N, C = ends). [ ]: non-standard residue; d: D form. The star is where a group is joined. X39 = CN1CCC(n2cc(-c3ccc(-c4ccc(Cl)cc4C[C@@H](C(=O)[*:2])N(C)[*:1])cc3)cn2)CC1; NMehhhLys(Me) = CN([C@@H](CCCCCCCN(C)[*:3])C(=O)[*:2])[*:1]; cBuCO(3,3-F2-1-CF3) = O=C(C1(C(F)(F)F)CC(F)(F)C1)*; Pro(trans-4-F) = O=C(O)[C@@H]1C[C@@H](F)CN1; Gly(cPr) = N[C@H](C(=O)O)C1CC1
For each of the compounds below, state its pIC50.
pIC50 is defined as minus the log10 of a concentration measured in mol/L.

Which pIC50 value is on record for CC(C)C[C@@H]1NC(=O)[C@@H](N(C)C(=O)[C@@H](NC(=O)[C@@H]2C[C@@H](F)CN2C(=O)C2(C(F)(F)F)CC2)C2CC2)CC=CCCCCNC(=O)[C@H](Cc2cc(Cl)ccc2Cl)N(C)C1=O (single isomer, unassigned) [Example 5-P2] ?
7.70

Which pIC50 value is on record for CC(C)C[C@@H]1NC(=O)[C@@H](N(C)C(=O)[C@@H](NC(=O)[C@@H]2C[C@@H](F)CN2C(=O)C2(C(F)(F)F)CC(F)(F)C2)C2CC2)CCCCCCCN(C)C(=O)[C@H](Cc2cc(Cl)ccc2-c2ccc(-c3cnn(C4CCN(C)CC4)c3)cc2)N(C)C1=O [Example 380] ({cBuCO(3,3-F2-1-CF3)}-[Pro(trans-4-F)][Gly(cPr)][NMehhhLys(Me)]L[X39]; lactam 3-C) ?
7.70

Which pIC50 value is on record for Cc1nnc(-c2ccc(Cl)cc2C[C@H]2C(=O)NCCCCC=CC[C@H](N(C)C(=O)[C@@H](NC(=O)[C@@H]3C[C@@H](F)CN3C(=O)C3(C(F)(F)F)CCC3)C3CC3)C(=O)N[C@@H](CC(C)C)C(=O)N2C)o1 (single isomer, unassigned) [Example 117-P1] ?
7.70

---

molecular target: CyclinA2/CDK2 (Homo sapiens, UniProt P20248); construct: purchased CRELUX Protein Services; assay: Fluorescence Polarization (FP) competitive binding assay, Cyclin A2/Cdk2; settings: 8 nM Cyclin A2/Cdk2, 2 nM FAM probe; average of 2-3 independent experiments; read-out: Cyclin A FP IC50
*1 amine or outer side, *2 acyl side, *3 side chain or, on linkers, in order; H or OH if unused. Where a SMILES comes first, the peptide text is derived from it. Bridges are numbered along the chain shown (N, C = ends). [ ]: non-standard residue; d: D form. The star is where a group is joined. X126 = CC(C)C(=O)N1[C@H]2COC[C@@H]1C=C(c1ccc(F)cc1C[C@@H](C(=O)[*:2])N(C)[*:1])C2; NMehhhLys(Me) = CN([C@@H](CCCCCCCN(C)[*:3])C(=O)[*:2])[*:1]; X22 = CN([C@@H](Cc1cc(Cl)ccc1-c1cnn(C)c1)C(=O)[*:2])[*:1]; NMe(hhhLys) = CN([C@@H](CCCCCCCN[*:3])C(=O)[*:2])[*:1]; cBuCO(3,3-F2-1-CF3) = O=C(C1(C(F)(F)F)CC(F)(F)C1)*; Pro(trans-4-F) = O=C(O)[C@@H]1C[C@@H](F)CN1; X27 = O=C([C@]1(C(F)(F)F)CCCCO1)*; Gly(cPr) = N[C@H](C(=O)O)C1CC1
For each of the molecules below, state its pIC50.
pIC50 is defined as minus the log10 of a concentration measured in mol/L.

Which pIC50 value is on record for CC(C)C[C@@H]1NC(=O)[C@@H](N(C)C(=O)[C@@H](NC(=O)[C@@H]2C[C@@H](F)CN2C(=O)[C@]2(C(F)(F)F)CCCCO2)C2CC2)CCCCCCCN(C)C(=O)[C@H](Cc2cc(Cl)ccc2-c2cnn(C)c2)N(C)C1=O [Example 183] (X27-[Pro(trans-4-F)][Gly(cPr)][NMehhhLys(Me)]L[X22]; lactam 3-C) ?
7.52

Which pIC50 value is on record for CC(C)C[C@@H]1NC(=O)[C@@H](N(C)C(=O)[C@@H](NC(=O)[C@@H]2C[C@@H](F)CN2C(=O)C2(C(F)(F)F)CC(F)(F)C2)C2CC2)CCCCCCCNC(=O)[C@H](Cc2cc(F)ccc2C2=C[C@H]3COC[C@@H](C2)N3C(=O)C(C)C)N(C)C1=O [Example 326] ({cBuCO(3,3-F2-1-CF3)}-[Pro(trans-4-F)][Gly(cPr)][NMe(hhhLys)]L[X126]; lactam 3-C) ?
7.70

---

For each of the molecules below, state its pIC50.
molecular target: CyclinA2/CDK2 (Homo sapiens, UniProt P20248); construct: purchased CRELUX Protein Services; experiment: Fluorescence Polarization (FP) competitive binding assay, Cyclin A2/Cdk2; settings: read-out: Cyclin A FP IC50; 8 nM Cyclin A2/Cdk2, 2 nM FAM probe; average of 2-3 independent experiments;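 further: plates equilibrated two hours at room temperature before polarization reading, IC50 fitted from eight-concentration compound titration curves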
*1 amine or outer side, *2 acyl side, *3 side chain or, on linkers, in order; H or OH if unused. Where a SMILES comes first, the peptide text is derived from it. Bridges are numbered along the chain shown (N, C = ends). [ ]: non-standard residue; d: D form. The star is where a group is joined. X209 = CN([C@@H](Cc1cc(Cl)ccc1-c1cnc2nn(C)cc2c1)C(=O)[*:2])[*:1]; X111 = CN([C@@H](Cc1cc(Cl)ccc1-c1nnc(C2CC2)o1)C(=O)[*:2])[*:1]; NMe3Pal(2-OiBu,5-Cl) = CN[C@@H](Cc1cc(Cl)cnc1OCC(C)C)C(=O)O; NMehhhLys(Me) = CN([C@@H](CCCCCCCN(C)[*:3])C(=O)[*:2])[*:1]; X168 = Cc1ncc(-c2ccc(Cl)cc2C[C@@H](C(=O)[*:2])N(C)[*:1])o1; X174 = CN([C@@H](Cc1cc(Cl)cnc1-c1cnn(C)c1)C(=O)[*:2])[*:1]; X112 = CN([C@@H](Cc1cc(F)ccc1-c1cnn(C)c1)C(=O)[*:2])[*:1]; X22 = CN([C@@H](Cc1cc(Cl)ccc1-c1cnn(C)c1)C(=O)[*:2])[*:1]; X199 = CN([C@@H](Cc1cc(Cl)ccc1C1=CCOC1)C(=O)[*:2])[*:1]; NMe(hhhLys) = CN([C@@H](CCCCCCCN[*:3])C(=O)[*:2])[*:1]; NMe3Pal(2-OMe,5-Cl) = CN[C@@H](Cc1cc(Cl)cnc1OC)C(=O)O; Oxane2carbonyl(2R-CF3) = O=C([C@@]1(C(F)(F)F)CCCCO1)*; cBuCO(3,3-F2-1-CF3) = O=C(C1(C(F)(F)F)CC(F)(F)C1)*; X25 = CCOc1ncc(Cl)cc1C[C@@H](C(=O)[*:2])N(C)[*:1]; Pro(trans-4-F) = O=C(O)[C@@H]1C[C@@H](F)CN1; Pivaloyl(3,3,3-F3) = CC(C)(C(=O)*)C(F)(F)F; Gly(cPr) = N[C@H](C(=O)O)C1CC1
pIC50 is defined as minus the log10 of a concentration measured in mol/L.

Which pIC50 value is on record for CC(C)C[C@@H]1NC(=O)[C@@H](N(C)C(=O)[C@@H](NC(=O)[C@@H]2C[C@@H](F)CN2C(=O)C2(C(F)(F)F)CC(F)(F)C2)C2CC2)CCCCCCCN(C)C(=O)[C@H](Cc2cc(Cl)ccc2-c2nnc(C3CC3)o2)N(C)C1=O [Example 240] ({cBuCO(3,3-F2-1-CF3)}-[Pro(trans-4-F)][Gly(cPr)][NMehhhLys(Me)]L[X111]; lactam 3-C) ?
7.70

Which pIC50 value is on record for CC(C)COc1ncc(Cl)cc1C[C@H]1C(=O)N(C)CCCCCCC[C@H](N(C)C(=O)[C@@H](NC(=O)[C@@H]2C[C@@H](F)CN2C(=O)[C@@]2(C(F)(F)F)CCCCO2)C2CC2)C(=O)N[C@@H](CC(C)C)C(=O)N1C [Example 229] ({Oxane2carbonyl(2R-CF3)}-[Pro(trans-4-F)][Gly(cPr)][NMehhhLys(Me)]L[NMe3Pal(2-OiBu,5-Cl)]; lactam 3-C) ?
7.70

Which pIC50 value is on record for CC(C)C[C@@H]1NC(=O)[C@@H](N(C)C(=O)[C@@H](NC(=O)[C@@H]2C[C@@H](F)CN2C(=O)C2(C(F)(F)F)CC(F)(F)C2)C2CC2)CCCCCCCN(C)C(=O)[C@H](Cc2cc(Cl)ccc2-c2cnc3nn(C)cc3c2)N(C)C1=O [Example 249] ({cBuCO(3,3-F2-1-CF3)}-[Pro(trans-4-F)][Gly(cPr)][NMehhhLys(Me)]L[X209]; lactam 3-C) ?
7.70

Which pIC50 value is on record for Cc1ncc(-c2ccc(Cl)cc2C[C@H]2C(=O)N(C)CCCCCCC[C@H](N(C)C(=O)[C@@H](NC(=O)[C@@H]3C[C@@H](F)CN3C(=O)C3(C(F)(F)F)CC(F)(F)C3)C3CC3)C(=O)N[C@@H](CC(C)C)C(=O)N2C)o1 [Example 206] ({cBuCO(3,3-F2-1-CF3)}-[Pro(trans-4-F)][Gly(cPr)][NMehhhLys(Me)]L[X168]; lactam 3-C) ?
7.70

Which pIC50 value is on record for CC(C)C[C@@H]1NC(=O)[C@@H](N(C)C(=O)[C@@H](NC(=O)[C@@H]2C[C@@H](F)CN2C(=O)[C@@]2(C(F)(F)F)CCCCO2)C2CC2)CCCCCCCN(C)C(=O)[C@H](Cc2cc(Cl)cnc2-c2cnn(C)c2)N(C)C1=O [Example 248] ({Oxane2carbonyl(2R-CF3)}-[Pro(trans-4-F)][Gly(cPr)][NMehhhLys(Me)]L[X174]; lactam 3-C) ?
7.70

Which pIC50 value is on record for CC(=O)N1[C@H]2CC[C@@H]1C=C(c1ccc(F)cc1C[C@H]1C(=O)N(C)CCCCCCC[C@H](N(C)C(=O)[C@@H](NC(=O)[C@@H]3C[C@@H](F)CN3C(=O)C3(C(F)(F)F)CC(F)(F)C3)C3CC3)C(=O)N[C@@H](CC(C)C)C(=O)N1C)C2 [Example 58] ?
7.70

Which pIC50 value is on record for CC(C)C[C@@H]1NC(=O)[C@@H](N(C)C(=O)[C@@H](NC(=O)[C@@H]2C[C@@H](F)CN2C(=O)C2(C(F)(F)F)CC(F)(F)C2)C2CC2)CCCCCCCN(C)C(=O)[C@H](Cc2cc(Cl)cnc2-c2cnn(C)c2)N(C)C1=O [Example 246] ({cBuCO(3,3-F2-1-CF3)}-[Pro(trans-4-F)][Gly(cPr)][NMehhhLys(Me)]L[X174]; lactam 3-C) ?
7.70

Which pIC50 value is on record for CC(C)C[C@@H]1NC(=O)[C@@H](N(C)C(=O)[C@@H](NC(=O)[C@@H]2C[C@@H](F)CN2C(=O)C2(C(F)(F)F)CC(F)(F)C2)C2CC2)CCCCCCCNC(=O)[C@H](Cc2cc(F)ccc2-c2cnn(C)c2)N(C)C1=O [Example 215] ({cBuCO(3,3-F2-1-CF3)}-[Pro(trans-4-F)][Gly(cPr)][NMe(hhhLys)]L[X112]; lactam 3-C) ?
7.70

Which pIC50 value is on record for CC(C)C[C@@H]1NC(=O)[C@@H](N(C)C(=O)[C@@H](NC(=O)[C@@H]2C[C@@H](F)CN2C(=O)C(C)(C)C(F)(F)F)C2CC2)CCCCCCCN(C)C(=O)[C@H](Cc2cc(Cl)ccc2-c2cnn(C)c2)N(C)C1=O [Example 204] ({Pivaloyl(3,3,3-F3)}-[Pro(trans-4-F)][Gly(cPr)][NMehhhLys(Me)]L[X22]; lactam 3-C) ?
7.70

Which pIC50 value is on record for CC(C)C[C@@H]1NC(=O)[C@@H](N(C)C(=O)[C@@H](NC(=O)[C@@H]2C[C@@H](F)CN2C(=O)C2(C(F)(F)F)CC(F)(F)C2)C2CC2)CCCCCCCN(C)C(=O)[C@H](Cc2cc(Cl)ccc2C2=CCOC2)N(C)C1=O [Example 209] ({cBuCO(3,3-F2-1-CF3)}-[Pro(trans-4-F)][Gly(cPr)][NMehhhLys(Me)]L[X199]; lactam 3-C) ?
7.70

Which pIC50 value is on record for CCOc1ncc(Cl)cc1C[C@H]1C(=O)N(C)CCCCCCC[C@H](N(C)C(=O)[C@@H](NC(=O)[C@@H]2C[C@@H](F)CN2C(=O)[C@@]2(C(F)(F)F)CCCCO2)C2CC2)C(=O)N[C@@H](CC(C)C)C(=O)N1C [Example 226] ({Oxane2carbonyl(2R-CF3)}-[Pro(trans-4-F)][Gly(cPr)][NMehhhLys(Me)]L[X25]; lactam 3-C) ?
7.70

Which pIC50 value is on record for COc1ncc(Cl)cc1C[C@H]1C(=O)N(C)CCCCCCC[C@H](N(C)C(=O)[C@@H](NC(=O)[C@@H]2C[C@@H](F)CN2C(=O)[C@@]2(C(F)(F)F)CCCCO2)C2CC2)C(=O)N[C@@H](CC(C)C)C(=O)N1C [Example 223] ({Oxane2carbonyl(2R-CF3)}-[Pro(trans-4-F)][Gly(cPr)][NMehhhLys(Me)]L[NMe3Pal(2-OMe,5-Cl)]; lactam 3-C) ?
7.70

From: patent US20240408169A1
